# Measured target: Coagulation Factor Xa, from uman plasma (Homo sapiens, UniProt P00742)
# Sequence (P00742 235-488 limits assumed): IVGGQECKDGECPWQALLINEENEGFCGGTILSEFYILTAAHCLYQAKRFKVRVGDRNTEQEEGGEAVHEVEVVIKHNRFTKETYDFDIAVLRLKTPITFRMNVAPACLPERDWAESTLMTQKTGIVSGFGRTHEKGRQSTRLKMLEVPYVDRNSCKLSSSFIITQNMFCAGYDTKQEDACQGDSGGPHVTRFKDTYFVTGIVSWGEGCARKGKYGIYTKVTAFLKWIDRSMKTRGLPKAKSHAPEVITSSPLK
# Sequence (P00742 41-179 limits assumed): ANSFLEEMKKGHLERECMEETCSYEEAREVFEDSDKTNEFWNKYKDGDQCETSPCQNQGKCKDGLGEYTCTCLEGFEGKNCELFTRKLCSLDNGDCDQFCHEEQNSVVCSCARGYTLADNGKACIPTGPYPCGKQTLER
# Protocol summary: Enzymatic assay, coagulation factor Xa
Where a SMILES comes first, the peptide text is derived from it.
I'd be grateful if you could share measured FXa at 100 μM % for these entries.
Respond with the figure and its unit, in that order.

Entry under review: CC[C@H](C)[C@@H]1NC(=O)[C@@H]2CCCN2C(=O)[C@H]2CCCN2C(=O)[C@H](CCCNC(=N)N)NC(=O)[C@@H]2CSSC[C@H](NC1=O)C(=O)N[C@@H]([C@@H](C)O)C(=O)N[C@@H](CCCCN)C(=O)N[C@@H](CO)C(=O)N[C@@H](CC(=O)O)C(=O)N1CCC[C@H]1C(=O)N1CCC[C@H]1C(=O)N[C@@H](CC1CCCCC1)C(=O)N2 [Ex. 20] (HELM PEPTIDE1{I.C.T.K.S.D.P.P.[Cha].C.R.[dP].P}$PEPTIDE1,PEPTIDE1,2:R3-10:R3|PEPTIDE1,PEPTIDE1,1:R1-13:R2$$$V2.0) . Reported FXa at 100 μM %?
25%

Entry under review: CC[C@H](C)[C@@H]1NC(=O)[C@H](C)NC(=O)[C@@H]2CCCN2C(=O)[C@H](CC(=O)O)NC(=O)[C@H](CO)NC(=O)[C@H](CCCCN)NC(=O)[C@H]([C@@H](C)O)NC(=O)[C@@H]2CSSC[C@H](NC1=O)C(=O)N[C@@H](CCCNC(=N)N)C(=O)N1CCC[C@@H]1C(=O)N1CCC[C@H]1C(=O)N[C@@H]([C@@H](C)CC)C(=O)N2 [Ex. 52] (HELM PEPTIDE1{I.C.T.K.S.D.P.A.I.C.R.[dP].P}$PEPTIDE1,PEPTIDE1,2:R3-10:R3|PEPTIDE1,PEPTIDE1,1:R1-13:R2$$$V2.0) . Reported FXa at 100 μM %?
6%

====

# Measured target: CathepsinG, from human neutrophils (Homo sapiens)
# Sequence (P08311 21-244): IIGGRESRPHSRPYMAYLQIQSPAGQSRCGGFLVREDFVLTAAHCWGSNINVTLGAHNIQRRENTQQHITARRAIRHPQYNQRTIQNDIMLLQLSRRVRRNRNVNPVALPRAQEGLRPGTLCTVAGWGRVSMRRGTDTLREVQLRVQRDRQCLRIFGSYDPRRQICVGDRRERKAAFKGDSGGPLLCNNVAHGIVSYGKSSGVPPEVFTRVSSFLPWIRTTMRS
# Protocol summary: Enzymatic assay, cathepsin G
# Study conditions: at 100 μM (stated in cell instead of IC50)
Where a SMILES comes first, the peptide text is derived from it.
Quantity kind: Cathepsin G at 100 μM % (at 100%)
Hi! Could you send only the number? It should be in at 100%, unit omitted.

Entry under review: CCCC[C@@H]1NC(=O)[C@@H]2CCCN2C(=O)[C@H]2CCCN2C(=O)[C@H](Cc2ccc(O)cc2)NC(=O)[C@@H]2CSSC[C@H](NC1=O)C(=O)N[C@@H](C)C(=O)N[C@@H](C)C(=O)N[C@@H](CO)C(=O)N[C@@H]([C@@H](C)CC)C(=O)N1CCC[C@H]1C(=O)N1CCC[C@H]1C(=O)N[C@@H](CCC(N)=O)C(=O)N2 [Ex. 86] (HELM PEPTIDE1{[Nle].C.A.A.S.I.P.P.Q.C.Y.[dP].P}$PEPTIDE1,PEPTIDE1,2:R3-10:R3|PEPTIDE1,PEPTIDE1,1:R1-13:R2$$$V2.0) . Reported Cathepsin G at 100 μM %?
47

====

I'd be grateful if you could share measured Thrombin at 100 μM % for these entries.
# Measured target: Thrombin, from Human Plasma (Homo sapiens, UniProt P00734)
# Protocol summary: Enzymatic assay, thrombin
Where a SMILES comes first, the peptide text is derived from it.
Hi! Could you send only the number? It should be in %, unit omitted.

Please provide the recorded Thrombin at 100 μM % for CCCC[C@@H]1NC(=O)[C@@H]2CCCN2C(=O)[C@H]2CCCN2C(=O)[C@H](c2ccccc2)NC(=O)[C@@H]2CSSC[C@H](NC1=O)C(=O)N[C@@H]([C@@H](C)O)C(=O)N[C@@H](C)C(=O)N[C@@H](CO)C(=O)N[C@@H]([C@@H](C)CC)C(=O)N1CCC[C@H]1C(=O)N1CCC[C@H]1C(=O)N[C@@H](CCC(N)=O)C(=O)N2 [Ex. 98] (HELM PEPTIDE1{[Nle].C.T.A.S.I.P.P.Q.C.[Phg].[dP].P}$PEPTIDE1,PEPTIDE1,2:R3-10:R3|PEPTIDE1,PEPTIDE1,1:R1-13:R2$$$V2.0) , tested on Thrombin, from Human Plasma (Homo sapiens, UniProt P00734).
5.2

Please provide the recorded Thrombin at 100 μM % for CC[C@H](C)[C@@H]1NC(=O)[C@@H]2CCCN2C(=O)[C@H]2CCCN2C(=O)[C@H](CCCNC(=N)N)NC(=O)[C@@H]2CSSC[C@H](NC1=O)C(=O)N[C@@H]([C@@H](C)O)C(=O)N[C@@H](CCCCN)C(=O)N[C@@H](CO)C(=O)N[C@@H](CC(=O)O)C(=O)N1CCC[C@H]1C(=O)N1CCC[C@H]1C(=O)N[C@@H](CC1CCCCC1)C(=O)N2 [Ex. 58] (HELM PEPTIDE1{I.C.T.K.S.D.P.P.[Cha].C.R.[dP].P}$PEPTIDE1,PEPTIDE1,2:R3-10:R3|PEPTIDE1,PEPTIDE1,1:R1-13:R2$$$V2.0) , tested on Thrombin, from Human Plasma (Homo sapiens, UniProt P00734).
28

Please provide the recorded Thrombin at 100 μM % for CC[C@H](C)[C@@H]1NC(=O)[C@@H]2CCCN2C(=O)[C@@H]2CCCN2C(=O)[C@H](CC(=O)O)NC(=O)[C@H](CO)NC(=O)[C@H](CCCCN)NC(=O)[C@H]([C@@H](C)O)NC(=O)[C@@H]2CSSC[C@H](NC1=O)C(=O)N[C@@H](CC(N)=O)C(=O)N1CCC[C@@H]1C(=O)N1CCC[C@H]1C(=O)N[C@@H](Cc1ccccc1)C(=O)N2 [Ex. 3] (HELM PEPTIDE1{F.C.T.K.S.D.P.P.I.C.N.[dP].P}$PEPTIDE1,PEPTIDE1,2:R3-10:R3|PEPTIDE1,PEPTIDE1,1:R1-13:R2$$$V2.0) , tested on Thrombin, from Human Plasma (Homo sapiens, UniProt P00734).
0

Please provide the recorded Thrombin at 100 μM % for CC[C@H](C)[C@@H]1NC(=O)[C@@H]2CCCN2C(=O)[C@@H]2CCCN2C(=O)[C@H](CC(=O)O)NC(=O)[C@H](CO)NC(=O)[C@H](CCCCN)NC(=O)[C@H]([C@@H](C)O)NC(=O)[C@@H]2CSSC[C@H](NC1=O)C(=O)N[C@@H](CO)C(=O)N1CCC[C@@H]1C(=O)N[C@@H](CCC(=O)O)C(=O)N[C@@H](Cc1ccccc1)C(=O)N2 [Ex. 64] (HELM PEPTIDE1{F.C.T.K.S.D.P.P.I.C.S.[dP].E}$PEPTIDE1,PEPTIDE1,2:R3-10:R3|PEPTIDE1,PEPTIDE1,1:R1-13:R2$$$V2.0) , tested on Thrombin, from Human Plasma (Homo sapiens, UniProt P00734).
2.3

====

# Tested on: HELA cells (Acc57)
# Protocol summary: Cytotoxicity assay (MTT reduction), HELA cells
# Type: cell-based
# Study conditions: Hela cells
Where a SMILES comes first, the peptide text is derived from it.
Quantity kind: Cytotoxicity LC50/GI50 Hela cells (µM)
Hi! Could you send only the number? It should be in µM, unit omitted.

Entry under review: CCCC[C@@H]1NC(=O)[C@H](C(C)C)NC(=O)[C@H]2CCCN2C(=O)[C@H](Cc2ccc(O)cc2)NC(=O)[C@@H]2CSSC[C@H](NC1=O)C(=O)N[C@@H]([C@@H](C)O)C(=O)N[C@@H](C)C(=O)N[C@@H](CO)C(=O)N[C@@H]([C@@H](C)CC)C(=O)N1CCC[C@H]1C(=O)N1CCC[C@H]1C(=O)N[C@@H](CCC(N)=O)C(=O)N2 [Ex. 125] (HELM PEPTIDE1{[Nle].C.T.A.S.I.P.P.Q.C.Y.[dP].V}$PEPTIDE1,PEPTIDE1,2:R3-10:R3|PEPTIDE1,PEPTIDE1,1:R1-13:R2$$$V2.0) . Reported Cytotoxicity LC50/GI50 Hela cells?
37

Entry under review: CC[C@H](C)[C@@H]1NC(=O)[C@@H]2CCCN2C(=O)[C@H]2CCCN2C(=O)[C@H](CCCNC(=N)N)NC(=O)[C@@H]2CSSC[C@H](NC1=O)C(=O)N[C@@H]([C@@H](C)O)C(=O)N[C@@H](CCCCN)C(=O)N[C@@H](CO)C(=O)N[C@@H](CC(=O)O)C(=O)N1CCC[C@H]1C(=O)N1CCC[C@H]1C(=O)N[C@@H](CCC(N)=O)C(=O)N2 [Ex. 17] (HELM PEPTIDE1{I.C.T.K.S.D.P.P.Q.C.R.[dP].P}$PEPTIDE1,PEPTIDE1,2:R3-10:R3|PEPTIDE1,PEPTIDE1,1:R1-13:R2$$$V2.0) . Reported Cytotoxicity LC50/GI50 Hela cells?
94
